Hello, the source for this data is ChEMBL document CHEMBL4257575, in case you need it.

biological target: Multidrug resistance-associated protein 1 (Homo sapiens); experiment: Inhibition of MRP1 in human 2008/MRP1 cells assessed as potentiation of doxorubicin-induced cytotoxicity by measuring cell survival at 2 uM after 5 days by MTS assay relative to control; assay type: cell-based; conditions: 120 h
Sequence (P33527 whole entry): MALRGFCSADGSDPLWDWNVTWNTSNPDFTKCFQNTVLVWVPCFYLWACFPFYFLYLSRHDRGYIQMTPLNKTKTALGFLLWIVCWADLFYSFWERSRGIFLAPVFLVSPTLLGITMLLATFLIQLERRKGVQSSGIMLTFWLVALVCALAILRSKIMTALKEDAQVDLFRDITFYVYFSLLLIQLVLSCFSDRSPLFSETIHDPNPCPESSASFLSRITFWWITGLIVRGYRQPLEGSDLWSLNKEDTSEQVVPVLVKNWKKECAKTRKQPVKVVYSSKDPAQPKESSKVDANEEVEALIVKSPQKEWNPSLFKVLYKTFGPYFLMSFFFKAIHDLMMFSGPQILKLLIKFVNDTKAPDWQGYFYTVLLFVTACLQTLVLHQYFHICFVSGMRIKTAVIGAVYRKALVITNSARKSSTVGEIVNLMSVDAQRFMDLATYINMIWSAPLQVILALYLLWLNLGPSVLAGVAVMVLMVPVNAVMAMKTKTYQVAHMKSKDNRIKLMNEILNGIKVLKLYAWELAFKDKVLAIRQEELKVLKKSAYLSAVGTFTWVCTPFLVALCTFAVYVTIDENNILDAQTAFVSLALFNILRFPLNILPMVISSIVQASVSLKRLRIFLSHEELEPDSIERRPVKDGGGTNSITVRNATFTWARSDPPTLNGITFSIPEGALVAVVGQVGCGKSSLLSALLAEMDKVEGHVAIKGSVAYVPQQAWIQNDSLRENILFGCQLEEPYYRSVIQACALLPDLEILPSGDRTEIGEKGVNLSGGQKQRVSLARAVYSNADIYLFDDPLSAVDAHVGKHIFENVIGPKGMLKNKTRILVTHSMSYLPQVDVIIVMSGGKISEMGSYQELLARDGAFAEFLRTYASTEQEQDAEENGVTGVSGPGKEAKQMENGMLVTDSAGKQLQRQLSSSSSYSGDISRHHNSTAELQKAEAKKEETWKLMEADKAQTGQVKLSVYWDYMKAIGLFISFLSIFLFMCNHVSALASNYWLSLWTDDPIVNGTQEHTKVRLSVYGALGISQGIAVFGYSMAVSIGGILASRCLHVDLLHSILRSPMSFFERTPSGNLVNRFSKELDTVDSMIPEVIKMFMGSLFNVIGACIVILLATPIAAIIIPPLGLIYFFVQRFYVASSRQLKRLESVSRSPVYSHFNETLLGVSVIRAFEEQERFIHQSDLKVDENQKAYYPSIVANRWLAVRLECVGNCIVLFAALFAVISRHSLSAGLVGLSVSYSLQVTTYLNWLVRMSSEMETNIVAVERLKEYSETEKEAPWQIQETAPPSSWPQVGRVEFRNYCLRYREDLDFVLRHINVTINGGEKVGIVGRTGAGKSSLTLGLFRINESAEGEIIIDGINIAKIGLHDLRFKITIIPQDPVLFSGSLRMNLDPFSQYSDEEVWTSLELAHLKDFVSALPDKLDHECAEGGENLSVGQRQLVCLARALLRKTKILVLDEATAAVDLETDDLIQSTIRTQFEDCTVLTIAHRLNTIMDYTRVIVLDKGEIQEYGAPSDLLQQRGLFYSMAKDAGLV
Experimental Endpoint: Survival (%)
Express the result in % but write the number alone.

Solved cases below.
[
  {
    "Chem Smiles": "C#CCN(C)CCN(C)CC#C",
    "Survival / %": 87
  },
  {
    "Chem Smiles": "O=c1cc(-c2ccccc2)oc2cc(OCCCc3cn(CCOc4cccc5c(=O)cc(-c6ccccc6)oc45)nn3)ccc12",
    "Survival / %": 56
  },
  {
    "Chem Smiles": "CN(CCN(C)Cc1cn(CCOCCOc2ccc(-c3oc4ccccc4c(=O)c3OCc3ccccc3)cc2)nn1)Cc1cn(CCOCCOc2ccc(-c3oc4ccccc4c(=O)c3OCc3ccccc3)cc2)nn1",
    "Survival / %": 76
  }
]

Lookup result for O=Cc1ccc(OCCCCc2cn(CCOCCOc3ccc4c(=O)cc(-c5ccccc5)oc4c3)nn2)cc1 ; measured Survival: 82

Lookup result for COc1cccc(COc2c(-c3ccc(OCCOCCn4cc(CCN5C(=O)c6ccccc6C5=O)nn4)cc3)oc3ccccc3c2=O)c1 ; measured Survival: 75

Lookup result for O=c1cc(-c2ccc(OCCOCCOCCn3cc(CN(Cc4ccccc4)Cc4cn(CCOCCOCCOc5ccc(-c6cc(=O)c7cc(F)ccc7o6)cc5)nn4)nn3)cc2)oc2ccc(F)cc12 ; measured Survival: 54

Lookup result for Cc1ccc2oc(-c3ccc(OCCOCCOCCn4cc(CN(Cc5ccccc5)Cc5cn(CCOCCOCCOc6ccc(-c7cc(=O)c8cc(C)ccc8o7)cc6)nn5)nn4)cc3)cc(=O)c2c1 ; measured Survival: 52
